Tested on: M. abscessus subsp. abscessus ATCC 19977
assay_remarks: MIC against M. abscessus in Middlebrook 7H9 + ADC
Format: cell-based
condition_parameters: Mycobacteroides abscessus, ATCC19977; ATCC 19977; 7H9 + ADC; read-out: MIC M. abscessus
attribute_measured: MIC (µg/mL)
The reply should contain only the number, in µg/mL.

[
  {
    "smiles_notation": "CO[C@H]1/C=C/O[C@@]2(C)Oc3c(C)c(O)c4c(c3C2=O)C2=NC3(CCN(CC(C)C)CC3)NC2=C(NC(=O)/C(C)=C\\C=C\\[C@H](C)[C@H](O)[C@@H](C)[C@@H](O)[C@@H](C)[C@H](OC(=O)CC(=O)N2CCCN(C)CC2)[C@@H]1C)C4=O",
    "reported": 0.25
  }
]

// below: MIC requested for another compound
Reported MIC, compound CO[C@H]1/C=C/O[C@@]2(C)Oc3c(C)c(O)c4c(c3C2=O)C2=NC3(CCN(CC(C)C)CC3)NC2=C(NC(=O)/C(C)=C\C=C\[C@H](C)[C@H](O)[C@@H](C)[C@@H](O)[C@@H](C)[C@H](OC(=O)CC(=O)N2CCN(CCN3CCCCC3)CC2)[C@@H]1C)C4=O : ____
0.5

###

Tested on: M. kansasii (ATCC 12478)
assay_remarks: MIC against M. kansasii in CAMHB + ADC
Assay type: cell-based
condition_parameters: Mycobacterium kansasii, ATCC12478, read-out: MIC M. kansasii
attribute_measured: log10 MIC (log10 of the value in µg/mL)
Note the log scale: values are log10 of MIC expressed in µg/mL.

Here's what some known entries look like.
[
  {
    "smiles_notation": "CO[C@H]1/C=C/O[C@@]2(C)Oc3c(C)c(O)c4c(c3C2=O)C2=NC3(CCN(CC(C)C)CC3)NC2=C(NC(=O)/C(C)=C\\C=C\\[C@H](C)[C@H](O)[C@@H](C)[C@@H](O)[C@@H](C)[C@H](OC(=O)CC(=O)N2CCC(Cc3ccccc3)CC2)[C@@H]1C)C4=O",
    "reported": -2.40
  },
  {
    "smiles_notation": "CO[C@H]1/C=C/O[C@@]2(C)Oc3c(C)c(O)c4c(c3C2=O)C2=NC3(CCN(CC(C)C)CC3)NC2=C(NC(=O)/C(C)=C\\C=C\\[C@H](C)[C@H](O)[C@@H](C)[C@@H](O)[C@@H](C)[C@H](OC(=O)CC(=O)N2CCC(Oc3ccccc3)CC2)[C@@H]1C)C4=O",
    "reported": -2.10
  },
  {
    "smiles_notation": "CO[C@H]1/C=C/O[C@@]2(C)Oc3c(C)c(O)c4c(c3C2=O)C2=NC3(CCN(CC(C)C)CC3)NC2=C(NC(=O)/C(C)=C\\C=C\\[C@H](C)[C@H](O)[C@@H](C)[C@@H](O)[C@@H](C)[C@H](OC(=O)CC(=O)N2CCC(Nc3cccnc3)CC2)[C@@H]1C)C4=O",
    "reported": -1.52
  },
  {
    "smiles_notation": "CO[C@H]1/C=C/O[C@@]2(C)Oc3c(C)c(O)c4c(c3C2=O)C2=NC3(CCN(CC(C)C)CC3)NC2=C(NC(=O)/C(C)=C\\C=C\\[C@H](C)[C@H](O)[C@@H](C)[C@@H](O)[C@@H](C)[C@H](OC(=O)CC(=O)N2CCCN(c3ccncc3)CC2)[C@@H]1C)C4=O",
    "reported": -0.90
  }
]

For the compound shown here, CO[C@H]1/C=C/O[C@@]2(C)Oc3c(C)c(O)c4c(c3C2=O)C2=NC3(CCN(CC(C)C)CC3)NC2=C(NC(=O)/C(C)=C\C=C\[C@H](C)[C@H](O)[C@@H](C)[C@@H](O)[C@@H](C)[C@H](OC(=O)CC(=O)N2CCC(Nc3ccccc3C#N)CC2)[C@@H]1C)C4=O , give the reported log10 MIC.
-1.80

###

System: M. abscessus subsp. abscessus ATCC 19977
assay_remarks: MIC against M. abscessus in Middlebrook 7H9 + ADC
Type: cell-based
condition_parameters: Mycobacteroides abscessus, ATCC19977; ATCC 19977; 7H9 + ADC; read-out: MIC M. abscessus
MIC values by entry
Write down the numeric answer in µg/mL and omit the unit.

Consider the worked cases shown below.
[
  {
    "compound": "CO[C@H]1/C=C/O[C@@]2(C)Oc3c(C)c(O)c4c(c3C2=O)C2=NC3(CCN(CC(C)C)CC3)NC2=C(NC(=O)/C(C)=C\\C=C\\[C@H](C)[C@H](O)[C@@H](C)[C@@H](O)[C@@H](C)[C@H](OC(=O)CC(=O)N2CCC(O)(Cc3ccccc3)CC2)[C@@H]1C)C4=O",
    "target_of_assay": "M. abscessus subsp. abscessus ATCC 19977",
    "attribute_measured": "MIC",
    "value_units": "µg/mL",
    "reported": 0.25
  },
  {
    "compound": "CCC(C(=O)O[C@H]1[C@H](C)[C@H](O)[C@H](C)[C@@H](O)[C@@H](C)/C=C/C=C(/C)C(=O)NC2=C3NC4(CCN(CC(C)C)CC4)N=C3c3c(c(O)c(C)c4c3C(=O)[C@@](C)(O/C=C/[C@H](OC)[C@H]1C)O4)C2=O)C(=O)N1CCCN(c2ccc(F)cc2)CC1 (some centres unmarked)",
    "target_of_assay": "M. abscessus subsp. abscessus ATCC 19977",
    "attribute_measured": "MIC",
    "value_units": "µg/mL",
    "reported": 0.125
  },
  {
    "compound": "CO[C@H]1/C=C/O[C@@]2(C)Oc3c(C)c(O)c4c(c3C2=O)C2=NC3(CCN(CC(C)C)CC3)NC2=C(NC(=O)/C(C)=C\\C=C\\[C@H](C)[C@H](O)[C@@H](C)[C@@H](O)[C@@H](C)[C@H](OC(=O)CC(=O)N2CCC3(CC2)Cc2ccccc2C3)[C@@H]1C)C4=O",
    "target_of_assay": "M. abscessus subsp. abscessus ATCC 19977",
    "attribute_measured": "MIC",
    "value_units": "µg/mL",
    "reported": 0.125
  },
  {
    "compound": "CO[C@H]1/C=C/O[C@@]2(C)Oc3c(C)c(O)c4c(c3C2=O)C2=NC3(CCN(CC(C)C)CC3)NC2=C(NC(=O)/C(C)=C\\C=C\\[C@H](C)[C@H](O)[C@@H](C)[C@@H](O)[C@@H](C)[C@H](OC(=O)CC(=O)OCc2ccccc2)[C@@H]1C)C4=O",
    "target_of_assay": "M. abscessus subsp. abscessus ATCC 19977",
    "attribute_measured": "MIC",
    "value_units": "µg/mL",
    "reported": 4
  },
  {
    "compound": "CO[C@H]1/C=C/O[C@@]2(C)Oc3c(C)c(O)c4c(c3C2=O)C2=NC3(CCN(CC(C)C)CC3)NC2=C(NC(=O)/C(C)=C\\C=C\\[C@H](C)[C@H](O)[C@@H](C)[C@@H](O)[C@@H](C)[C@H](OC(=O)CC(=O)NC2CCN(Cc3ccccc3)CC2)[C@@H]1C)C4=O",
    "target_of_assay": "M. abscessus subsp. abscessus ATCC 19977",
    "attribute_measured": "MIC",
    "value_units": "µg/mL",
    "reported": 0.25
  },
  {
    "compound": "CO[C@H]1/C=C/O[C@@]2(C)Oc3c(C)c(O)c4c(c3C2=O)C2=NC3(CCN(CC(C)C)CC3)NC2=C(NC(=O)/C(C)=C\\C=C\\[C@H](C)[C@H](O)[C@@H](C)[C@@H](O)[C@@H](C)[C@H](OC(=O)CC(=O)N2CCC(n3c(=O)[nH]c5cc(Cl)ccc53)CC2)[C@@H]1C)C4=O",
    "target_of_assay": "M. abscessus subsp. abscessus ATCC 19977",
    "attribute_measured": "MIC",
    "value_units": "µg/mL",
    "reported": 0.5
  },
  {
    "compound": "CO[C@H]1/C=C/O[C@@]2(C)Oc3c(C)c(O)c4c(c3C2=O)C2=NC3(CCN(CC(C)C)CC3)NC2=C(NC(=O)/C(C)=C\\C=C\\[C@H](C)[C@H](O)[C@@H](C)[C@@H](O)[C@@H](C)[C@H](OC(=O)CC(=O)N2CCN(CCN3CCOCC3)CC2)[C@@H]1C)C4=O",
    "target_of_assay": "M. abscessus subsp. abscessus ATCC 19977",
    "attribute_measured": "MIC",
    "value_units": "µg/mL",
    "reported": 0.5
  },
  {
    "compound": "CO[C@H]1/C=C/O[C@@]2(C)Oc3c(C)c(O)c4c(c3C2=O)C2=NC3(CCN(CC(C)C)CC3)NC2=C(NC(=O)/C(C)=C\\C=C\\[C@H](C)[C@H](O)[C@@H](C)[C@@H](O)[C@@H](C)[C@H](OC(=O)CCCC(=O)OCC2CCCN(C)C2)[C@@H]1C)C4=O (some centres unmarked)",
    "target_of_assay": "M. abscessus subsp. abscessus ATCC 19977",
    "attribute_measured": "MIC",
    "value_units": "µg/mL",
    "reported": 1
  }
]

If you can, please state the reported MIC value of CO[C@H]1/C=C/O[C@@]2(C)Oc3c(C)c(O)c4c(c3C2=O)C2=NC3(CCN(CC(C)C)CC3)NC2=C(NC(=O)/C(C)=C\C=C\[C@H](C)[C@H](O)[C@@H](C)[C@@H](O)[C@@H](C)[C@H](OC(=O)CC(=O)N2CCN(c3ccccn3)CC2)[C@@H]1C)C4=O .
0.25

Record: CO[C@H]1/C=C/O[C@@]2(C)Oc3c(C)c(O)c4c(c3C2=O)C2=NC3(CCN(CC(C)C)CC3)NC2=C(NC(=O)/C(C)=C\C=C\[C@H](C)[C@H](O)[C@@H](C)[C@@H](O)[C@@H](C)[C@H](OC(=O)CC(=O)N2CCN(c3ccccc3S(N)(=O)=O)CC2)[C@@H]1C)C4=O
0.5

Another compound to check: CO[C@H]1/C=C/O[C@@]2(C)Oc3c(C)c(O)c4c(c3C2=O)C2=NC3(CCN(CC(C)C)CC3)NC2=C(NC(=O)/C(C)=C\C=C\[C@H](C)[C@H](O)[C@@H](C)[C@@H](O)[C@@H](C)[C@H](OC(=O)CC(=O)N2CCN(c3ncccn3)CC2)[C@@H]1C)C4=O
0.125

Okay, and CO[C@H]1/C=C/O[C@@]2(C)Oc3c(C)c(O)c4c(c3C2=O)C2=NC3(CCN(CC(C)C)CC3)NC2=C(NC(=O)/C(C)=C\C=C\[C@H](C)[C@H](O)[C@@H](C)[C@@H](O)[C@@H](C)[C@H](OC(C)=O)[C@@H]1C)C4=O ?
8

// query: CO[C@H]1/C=C/O[C@@]2(C)Oc3c(C)c(O)c4c(c3C2=O)C2=NC3(CCN(CC(C)C)CC3)NC2=C(NC(=O)/C(C)=C\C=C\[C@H](C)[C@H](O)[C@@H](C)[C@@H](O)[C@@H](C)[C@H](OC(=O)C(C)C(=O)N2CCCN(c3ccc(F)cc3)CC2)[C@@H]1C)C4=O (some centres unmarked)
0.25

Record: CO[C@H]1/C=C/O[C@@]2(C)Oc3c(C)c(O)c4c(c3C2=O)C2=NC3(CCN(CC(C)C)CC3)NC2=C(NC(=O)/C(C)=C\C=C\[C@H](C)[C@H](O)[C@@H](C)[C@@H](O)[C@@H](C)[C@H](OC(=O)CC(=O)N2CC(Nc3ccc(F)cc3)C2)[C@@H]1C)C4=O
0.5
